target: T1, human plasma kallikrein (human, UniProt P03952 20-390; P03952 391-638); assay: ELISA; signal on biotinylated plasma kallikrein divided by signal on streptavidin background
T1 construct: also called pKal; human pKal
T1 sequence (P03952 20-390, chain 1 of 2): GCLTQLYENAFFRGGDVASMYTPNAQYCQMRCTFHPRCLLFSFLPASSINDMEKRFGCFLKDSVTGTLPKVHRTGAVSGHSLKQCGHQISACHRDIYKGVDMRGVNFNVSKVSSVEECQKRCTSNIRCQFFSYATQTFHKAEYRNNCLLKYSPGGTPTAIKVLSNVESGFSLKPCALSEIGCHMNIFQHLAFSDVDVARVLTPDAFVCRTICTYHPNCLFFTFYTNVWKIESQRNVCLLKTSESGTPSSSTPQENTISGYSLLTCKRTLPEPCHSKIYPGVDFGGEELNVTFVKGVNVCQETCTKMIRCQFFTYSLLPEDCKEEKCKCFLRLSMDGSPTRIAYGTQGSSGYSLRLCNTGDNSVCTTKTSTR
T1 sequence (P03952 391-638, chain 2 of 2): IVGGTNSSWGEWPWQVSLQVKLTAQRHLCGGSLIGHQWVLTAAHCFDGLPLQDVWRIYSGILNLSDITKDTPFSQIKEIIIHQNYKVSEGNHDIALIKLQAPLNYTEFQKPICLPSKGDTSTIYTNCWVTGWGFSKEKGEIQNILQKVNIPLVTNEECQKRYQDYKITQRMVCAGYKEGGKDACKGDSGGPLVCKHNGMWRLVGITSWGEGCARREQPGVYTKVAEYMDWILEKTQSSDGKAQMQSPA
Kindly state ELISA (T/B) for each of the entries shown.
One number for each entry, in T/B ratio.

Some solved cases for reference:
M146-E12 (antibody, V domains shown) VH: EVQLLESGGGLVQPGGSLRLSCAASGFTFSRYIMHWVRQAPGKGLEWVSSISPSGGLTSYADSVKGRFTISRDNSKNTLYLQMNSLRAEDTAVYYCAREFENAYHYYYYGMDVWGQGTTVTVSS VL: DIQMTQSPSSLSASVGDRVTITCRASGDIGNALGWYQQKPGKAPRLLISDASTLQSGVPLRFSGSGSGTEFTLTISSLQPEDFATYYCLQGYNYPRTFGQGTKLEIR | 40.6
M7-B04 (antibody, V domains shown) VL: QSALTQPASVSGSPGQSITISCTGTNSDVGNYNLVSWYQQHPGEAPKLLIYEVNKRPSGVSNRFSGSKSGNTASLTISGLQAEDEADYLCCSYAGNRNFYVFGAGTKVTVL VH: EVQLLESGGGLVQPGGSLRLSCAASGFTFSWYSMVWVRQAPGKGLEWVSSISPSGGLTNYADSVKGRFTISRDNSKNTLYLQMNSLRAEDTAVYYCARHTAARPFYYYYMDVWSKSTTVTVSSASTKGPSVFPLAPSSKS | 4.1

Turning now to a further record.
So what does the record say about ELISA (T/B) for M29-D09 (antibody, V domains shown) VH: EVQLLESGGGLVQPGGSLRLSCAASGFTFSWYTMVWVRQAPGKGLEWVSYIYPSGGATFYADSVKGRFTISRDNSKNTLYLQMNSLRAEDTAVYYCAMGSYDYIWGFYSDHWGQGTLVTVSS VL: QSALTQPPTVSVSPGQTARITCSGNKLGDKYVAWYQQKPGQSPMLVIYQDTKRPSAIPERFSGSNSANTATLSISGTQALDEADYYCQAWDSSIVIFGGGTRLTVL ?
47.5
